All figures here come from the supplement of paper PMC12645437.

Biological target: T1, CRBN, Q96SW2;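 note: pooled lentiviral library of zinc finger degron-EGFP fusions in mCherry-positive Jurkat cells, FACS-sorted after compound exposure, with degron abundance counted by next-generation sequencing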
T1 chain: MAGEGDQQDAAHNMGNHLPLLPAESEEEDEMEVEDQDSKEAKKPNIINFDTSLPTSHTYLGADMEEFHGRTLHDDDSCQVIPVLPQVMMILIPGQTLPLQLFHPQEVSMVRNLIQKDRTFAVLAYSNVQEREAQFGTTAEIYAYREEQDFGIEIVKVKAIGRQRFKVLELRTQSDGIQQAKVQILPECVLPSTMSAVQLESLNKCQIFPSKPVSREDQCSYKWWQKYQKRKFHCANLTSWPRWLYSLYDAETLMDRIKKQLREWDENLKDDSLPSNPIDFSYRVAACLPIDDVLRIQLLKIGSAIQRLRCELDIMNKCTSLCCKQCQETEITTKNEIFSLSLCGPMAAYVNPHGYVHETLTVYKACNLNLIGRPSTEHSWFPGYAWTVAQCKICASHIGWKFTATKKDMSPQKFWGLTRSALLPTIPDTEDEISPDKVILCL
Assay: log2 fold change of degron read counts, EGFP-low vs EGFP+ sorted cells (limma voom), compound-induced degradation; higher = more compound-induced degradation of the degron-EGFP fusion; degrons are variants of IKZF1/3 zinc finger 2; compound dose not given here
Details: Jurkat; 18 h; compound: compound 19 (5-tert-butyl-thalidomide)
Over roughly 8,300 sequences, “log2 fold change of degron read counts, EGFP-low vs EGFP+ sorted cells (limma voom), compound-induced degradation” has its median near -1.1; the highest 2% begin near 3.2. Shown is part of a subset that was picked to be rich in the highest values.
# log2 fold change of degron read counts per entry
measured property: log2 fold change of degron read counts

* FGCPICGARFTQKGNLLRHIKL [46F_47G_49P_50I_52G_53A_54R_55F_67L_, Q9UKT9] | 3.39
* FYCPICGARFTQKGNLLRHIKL [46F_47Y_49P_50I_52G_53A_54R_55F_67L_, Q9UKT9] | 2.38
* FRCPQCGARFTQKGNLLRHIKL [46F_47R_49P_50Q_52G_53A_54R_55F_67L_, Q9UKT9] | -2.3
* FSCPICGALFTQKGNLLRHIKL [46F_47S_49P_50I_52G_53A_54L_55F_67L_, Q9UKT9] | 0.486
* FSCPVCGAMFTQKGNLLRHIKL [46F_47S_49P_50V_52G_53A_54M_55F_67L_, Q9UKT9] | 1.68
* FVCPICGARFTQKGNLLRHIKL [46F_47V_49P_50I_52G_53A_54R_55F_67L_, Q9UKT9] | 0.924
* FMCDICGAQFTQKGNLLRHIKL [46F_47M_49D_50I_52G_53A_54Q_55F_67L_, Q9UKT9] | -1.1
* FRCPICGARFTQKGNLLRHIKL [46F_47R_49P_50I_52G_53A_54R_55F_67L_, Q9UKT9] | -0.853
* FDCNVCGAQFTQKGNLLRHIKL [46F_47D_49N_50V_52G_53A_54Q_55F_67L_, Q9UKT9] | -1.58
* FSCPICGARFTQKGNLLRHIKL [46F_47S_49P_50I_52G_53A_54R_55F_67L_, Q9UKT9] | 2.63
* FSCPICGHEFTQKGNLLRHIKL [46F_47S_49P_50I_52G_53H_54E_55F_67L_, Q9UKT9] | -2.38
* FFCNQCGHRFTQKGNLLRHIKL [46F_47F_49N_50Q_52G_53H_54R_55F_67L_, Q9UKT9] | -1.77
* FHCNICGAGFTQKGNLLRHIKL [46F_47H_49N_50I_52G_53A_54G_55F_67L_, Q9UKT9] | 1.76
* FNCPVCGAMFTQKGNLLRHIKL [46F_47N_49P_50V_52G_53A_54M_55F_67L_, Q9UKT9] | 0.95
* FVCPICGALFTQKGNLLRHIKL [46F_47V_49P_50I_52G_53A_54L_55F_67L_, Q9UKT9] | -0.961
